# GI50 listing for each entry below
System: RXF 393 renal
Test: NCI tumour cell line growth inhibition, 48 h
Metric name: GI50

[
  {
    "Molecule": "CN(CCCCCl)P(=O)(OCCS(=O)(=O)CC(NC(=O)CCC(N)C(=O)O)C(=O)NC(C(=O)O)c1ccccc1)OCC1OC(n2cc(F)c(=O)[nH]c2=O)CC1O (stereo not given)",
    "Val": "4000 nM"
  },
  {
    "Molecule": "Cn1cc(-c2nonc2-c2cn(C)c3ccccc23)c2ccccc21",
    "Val": "827 nM"
  },
  {
    "Molecule": "O=C([CH-]C(=O)c1ccccc1)c1ccccc1.O=C([CH-]C(=O)c1ccccc1)c1ccccc1.[OH-].[OH-].[Ti+4]",
    "Val": "6850 nM"
  },
  {
    "Molecule": "CC(C)=CCC/C(C)=C/CC/C(C)=C/CC/C=C(\\C)CC/C=C(\\C)CCC(=O)Nc1ccn(C2OC(CO)C(O)C2(F)F)c(=O)n1 (stereo not given)",
    "Val": "1090 nM"
  },
  {
    "Molecule": "CCCCn1c(=O)c2c(nc3n2CCCN3CCc2ccc(OCC(=O)NCCN(CC)CC)cc2)n(CCCC)c1=O",
    "Val": "1650 nM"
  }
]

----------
# TGI listing for each entry below
Test system: RXF 393 renal
Test: NCI tumour cell line growth inhibition, 48 h

[
  {
    "Molecule": "CCO/C=C1\\N=C(c2ccccc2Br)OC1=O",
    "TGI": "> 100 µM"
  },
  {
    "Molecule": "COc1ccc(C(=O)c2[nH]c(Nc3ccc(Cl)cc3)c(C(=S)Nc3ccccc3)c2N)cc1",
    "TGI": "> 100 µM"
  },
  {
    "Molecule": "O=C(/C=C/c1csc(-c2ccccc2)n1)NCc1ccc(C(=O)NCc2ccccc2)cc1",
    "TGI": "> 100 µM"
  },
  {
    "Molecule": "COc1ccc2cc(-c3c(-c4ccncc4)nc(-c4ccc(S(C)=O)cc4)n3C)ccc2c1 (stereo not given)",
    "TGI": "> 25 µM"
  },
  {
    "Molecule": "Cc1ccc2c(=O)cc(-c3ccc(-c4ccccc4)s3)[nH]c2n1",
    "TGI": "> 100 µM"
  }
]

----------
System: SF-295 CNS
Test: NCI tumour cell line growth inhibition, 48 h

[
  {
    "Molecule": "COc1ccc(/C=N/NC(=O)Cn2c(-c3ccc(S(C)(=O)=O)cc3)nc3cc(Cl)ccc32)cc1",
    "GI50": "1470 nM"
  },
  {
    "Molecule": "CN1CCN(Cc2ccc(NC(=O)c3[nH]ncc3Nc3ncnc4sc5c(c34)CCCC5)cc2)CC1",
    "GI50": "373 nM"
  },
  {
    "Molecule": "COC1O[C@@H]2C[C@H]3C(C)(C)CCC[C@]3(C)C3=CCCC1[C@@]32C (stereo partly specified)",
    "GI50": "> 100000 nM"
  },
  {
    "Molecule": "O=C(Nc1cccc(Nc2ncc(Br)c(NCCc3cnc[nH]3)n2)c1)N1CCCC1",
    "GI50": "3720 nM"
  },
  {
    "Molecule": "Cn1cc(-c2nonc2-c2cn(C)c3ccccc23)c2ccccc21",
    "GI50": "420 nM"
  },
  {
    "Molecule": "CC1OC(O[C@H]2/C=C/C=C/C=C/C=C/C=C/C=C/C=C/[C@H](C)[C@@H](O)[C@@H](C)[C@H](C)OC(=O)CC(O)CC(O)CCC(O)C(O)CC(O)C[C@]3(O)C[C@H](O)C(C(=O)O)C(C2)O3)C(O)[C@H](N)C1O (stereo partly specified)",
    "GI50": "18600 nM"
  },
  {
    "Molecule": "COc1ccc2cc(-c3c(-c4ccncc4)nc(-c4ccc(S(C)=O)cc4)n3C)ccc2c1 (stereo unspecified)",
    "GI50": "> 22400 nM"
  },
  {
    "Molecule": "C[C@@H]1O[C@@H](OC[C@H]2O[C@@H](OCCc3ccc(O)c(O)c3)[C@H](O)[C@@H](O)[C@@H]2OC(=O)/C=C/c2ccc(O)c(O)c2)[C@H](O)[C@H](O)[C@H]1O",
    "GI50": "> 100000 nM"
  },
  {
    "Molecule": "BrCc1ccc(CBr)cc1",
    "GI50": "5120 nM"
  },
  {
    "Molecule": "CCN(Cc1ccc(Cl)s1)c1ccc(CO)c(Cl)c1",
    "GI50": "352 nM"
  },
  {
    "Molecule": "O=C1NC(=O)C(c2cccc(Cl)c2)=C1Nc1ccc(O)c(Cl)c1",
    "GI50": "11600 nM"
  },
  {
    "Molecule": "CC1(C)N=C(N)N=C(N)N1c1ccc(CCCCc2ccc(S(=O)(=O)F)cc2)c(Cl)c1",
    "GI50": "636 nM"
  },
  {
    "Molecule": "CC1=CC(=O)C(O)C2(C)C1CC(O)C13COC4(C)C(OC(=O)C41)C(O)C23 (stereo unspecified)",
    "GI50": "8020 nM"
  },
  {
    "Molecule": "O=c1[nH]cnc2c(C3NC(CO)C(O)C3O)c[nH]c12 (stereo unspecified)",
    "GI50": "> 100000 nM"
  },
  {
    "Molecule": "CN1CCN(CC(O)COc2c(Br)c(Br)c(Br)c3c2OC(C)(C)C3)CC1 (stereo unspecified)",
    "GI50": "1790 nM"
  },
  {
    "Molecule": "CCCCn1c(=O)c2c(nc3n2CCCN3CCc2ccc(OCC(=O)NCCN(CC)CC)cc2)n(CCCC)c1=O",
    "GI50": "877 nM"
  }
]

----------
# TGI listing for each entry below
Test system: OVCAR-8 ovarian
Test: NCI tumour cell line growth inhibition, 48 h

[
  {
    "Compound": "c1ccc(CSCCc2ccncc2)cc1",
    "TGI": "> 100 µM"
  },
  {
    "Compound": "Cc1nc(-c2ccc(N=Cc3ccc(N(CCOS(C)(=O)=O)CCOS(C)(=O)=O)cc3C)cc2)cs1",
    "TGI": "> 100 µM"
  },
  {
    "Compound": "CC(=O)c1c(C(F)(F)F)n([O-])c2ccc(C)cc2[n+]1=O",
    "TGI": "> 100 µM"
  },
  {
    "Compound": "CCOC(=O)[C@H](Cc1ccc(O)cc1)N=C1[C@H]2CCC[C@]1(O)[C@@](C)([N+](=O)[O-])C2",
    "TGI": "> 100 µM"
  },
  {
    "Compound": "C#CCOCC12C=CC(O1)C1C(=O)OCC12 (stereo unspecified)",
    "TGI": "> 100 µM"
  },
  {
    "Compound": "CN1COc2c(n(C)c(=O)[nH]c2=O)C1",
    "TGI": "> 100 µM"
  },
  {
    "Compound": "CC(C)(CC(O)C#N)/[N+]([O-])=[N+](\\[O-])C(C)(C)CC(O)C#N (stereo unspecified)",
    "TGI": "> 100 µM"
  },
  {
    "Compound": "CC(C)(C)CN1CCn2c(nc3c(N)nccc32)S1",
    "TGI": "> 100 µM"
  },
  {
    "Compound": "O=C([CH-]C(=O)c1ccccc1)c1ccccc1.O=C([CH-]C(=O)c1ccccc1)c1ccccc1.[OH-].[OH-].[Ti+4]",
    "TGI": "> 100 µM"
  },
  {
    "Compound": "CC(C)=C/C=C1/CS(=O)(=O)C=C1C",
    "TGI": "> 100 µM"
  },
  {
    "Compound": "C[CH2][Pb]([CH2]C)([CH2]C)[O]C(=O)c1ccc2ccccc2n1",
    "TGI": "> 10 µM"
  },
  {
    "Compound": "CC1(C)CCC[C@]2(C)[C@@H](C=O)C(C=O)=CC[C@@H]12",
    "TGI": "31.2 µM"
  },
  {
    "Compound": "COC(=O)C(C)(C)N=CN(C)C",
    "TGI": "> 100 µM"
  },
  {
    "Compound": "O=C(/C=C/c1csc(-c2ccccc2)n1)NCc1ccc(C(=O)NCc2ccccc2)cc1",
    "TGI": "> 100 µM"
  },
  {
    "Compound": "COC1O[C@@H]2C[C@H]3C(C)(C)CCC[C@]3(C)C3=CCCC1[C@@]32C (stereo partly specified)",
    "TGI": "> 100 µM"
  },
  {
    "Compound": "CCC[C@H](C)C[C@H](C)C[C@H](C)/C=C(\\C)[C@@H](O)[C@@H](C)C(=O)CC",
    "TGI": "39.4 µM"
  },
  {
    "Compound": "CCN(CC)Cc1sc2nc3ccccc3n2c1-c1ccc(OC)cc1",
    "TGI": "> 100 µM"
  },
  {
    "Compound": "CCC1(O)C(=O)OCc2c1cc1n(c2=O)Cc2cc3cc(N)ccc3nc2-1 (stereo unspecified)",
    "TGI": "4.45 µM"
  },
  {
    "Compound": "C/C=C(\\C)c1cc(O)c(C)c2c1Oc1cc(O)c(Cl)c(C)c1C(=O)O2",
    "TGI": "45.9 µM"
  },
  {
    "Compound": "CCCc1ccc(NCc2cc(OC)c(OC)c(OC)c2)cc1",
    "TGI": "> 100 µM"
  },
  {
    "Compound": "COc1ccc(/C=C2\\CN(C)C/C(=C\\c3ccc(OC)c(OC)c3OC)C2=O)c(OC)c1OC",
    "TGI": "0.343 µM"
  },
  {
    "Compound": "Cn1cncc1CC1COC(=O)C1C(O)c1ccccc1 (stereo unspecified)",
    "TGI": "> 100 µM"
  },
  {
    "Compound": "Cc1ccc(/C=C2\\CCCC(CN3CCCCC3)C2=O)cc1 (stereo unspecified)",
    "TGI": "6.79 µM"
  },
  {
    "Compound": "C[C@@H]1O[C@@H](OC[C@H]2O[C@@H](OCCc3ccc(O)c(O)c3)[C@H](O)[C@@H](O)[C@@H]2OC(=O)/C=C/c2ccc(O)c(O)c2)[C@H](O)[C@H](O)[C@H]1O",
    "TGI": "> 100 µM"
  },
  {
    "Compound": "Cc1n[nH]c(=O)n1/N=C/c1ccc([N+](=O)[O-])o1",
    "TGI": "34.6 µM"
  },
  {
    "Compound": "CCOc1cc(NC(C)=O)ccc1C(=O)NN1C(=O)C(Cl)C1c1ccco1 (stereo unspecified)",
    "TGI": "> 100 µM"
  },
  {
    "Compound": "c1ccc(P(=Nc2ccccc2N=P(c2ccccc2)(c2ccccc2)c2ccccc2)(c2ccccc2)c2ccccc2)cc1",
    "TGI": "12.2 µM"
  },
  {
    "Compound": "CCN(Cc1ccc(Cl)s1)c1ccc(CO)c(Cl)c1",
    "TGI": "27.6 µM"
  },
  {
    "Compound": "Cc1ccc(NC(=O)c2ccccc2C(=O)O)cc1C",
    "TGI": "> 100 µM"
  },
  {
    "Compound": "O=C(O)COc1c(Cl)cc(Cl)c2cccnc12",
    "TGI": "> 100 µM"
  },
  {
    "Compound": "CC(=O)Oc1ccccc1C(=O)/C=C/c1cccc([N+](=O)[O-])c1",
    "TGI": "10.4 µM"
  }
]

// data source = PubChem BioAssay (NCI)
